molecular target: Hexose transporter 1 (Plasmodium falciparum); assay: ST_JUDE_LEISH: Cytotoxicity at 2uM final concentration against transgenic Leishmania Mexicana promastigotes LmPfHT that are glucose transport deficient and complemented with the Plasmodium falciparum hexose transporter. Activity is measured by DNA content using SYBR green in vitro; format: functional
Some compounds, each annotated with its measured inhibition.

COMPOUND	inhibition, %
CCc1cn2c3c(cc(C(=O)N[C@@H](Cc4ccccc4)[C@H](O)CNC4CCCCC4)cc13)N(CC)S(=O)(=O)CC2	0.33
CCCCc1cc(NCc2ccncc2)nc(Nc2ccccc2)n1	6.01
CNc1ccc(CNCc2ccc(-c3ccc(-c4nc5cc(C(F)(F)F)ccc5[nH]4)cc3)cc2)cc1	-1.86
CC(C)Oc1ccc(N2CCN(CCCCNC(=O)c3ccc(NC(=O)c4ccc(Cl)cc4)cc3)CC2)c(OC(C)C)c1	2.05
CCN(CC)CCN(Cc1ccc(-c2ccc(C(F)(F)F)cc2)cc1)C(=O)Cn1c(CCc2cc(F)ccc2F)nc(=O)c2ccccc21	-1.65
CCN1CCN(c2cc(C)c3cc(NC(=O)c4ccc(OC)c(OC)c4)ccc3n2)CC1	0.53
O=C(Nc1ccc(N2CCN(Cc3cccc(F)c3)CC2)cc1)c1cccs1	2.27
CC(C)CNCc1ccc(OCc2cccc(COc3ccc(CNCC(C)C)cc3I)c2)c(I)c1	1.42
CN(C)CCN(C)Cc1cccc(-c2ccc3c(Nc4cc(O)c(Cl)cc4F)ccnc3c2)c1	-0.99
CCOc1cc2c(cc1OCC)C(c1cc(OC)c(O)cc1Cl)NCC2 (stereo not drawn)	0.45
CCN1CCN(c2cc(C)c3cc(NC(=O)c4ccc(C(C)(C)C)cc4)ccc3n2)CC1	2.13
O=C(NCCSCc1c(F)cccc1Cl)c1cnc2c(c1)nc(-c1c[nH]c(-c3ccccc3)n1)n2CCc1c[nH]cn1	2.22
C=C[C@]1(C)C[C@@H](OC(=O)NC(=O)C2CCN(C(=O)CSc3ccccc3)CC2)[C@]2(C)[C@H](C)CC[C@]3(CCC(=O)[C@H]32)[C@@H](C)[C@@H]1O	11.6
COc1cc(C(=O)N2C(c3nccs3)C(C(=O)N(OC)C(C)c3ccccc3)CC2(CC(C)C)C(=O)OC(C)(C)C)ccc1C(C)(C)C (stereo not drawn)	3.71
Cn1cc(CN2CCCC(COC(c3ccccc3)c3ccccc3)C2)cn1 (stereo not drawn)	2.93
O=S(=O)(c1ccccc1)n1ccc2cc(Nc3ncnc4cc(C#C[C@H]5CCCN5)sc34)ccc21	2.14
COc1ccc(C2CC(c3cccs3)=NN2C(=O)COc2cccc(C(C)=O)c2)cc1OC (stereo not drawn)	-0.46
CCC1(C)N=C(N)N=C(N)N1c1ccccc1 (stereo not drawn)	0
CCC(ON1C(N)=NC(N)=NC1(C)C)c1ccc(Cl)cc1 (stereo not drawn)	8.81
CC(C)(C)c1ccc(CN2CCC(CNC(=O)c3cc(-c4ccccc4Cl)cs3)C2)cc1 (stereo not drawn)	0.05
COc1ccc(CN(C)CCCOc2ccc(NC(=O)C=Cc3ccc(C(C)(C)C)cc3)cc2)cc1OC	9.61
CCC(C)CN1CCN(c2ccc(NC(=O)c3cccs3)cc2)C(C)C1 (stereo not drawn)	9.28
COc1ccc2nc3cc(Cl)ccc3c(NCCN3CCN(C)CC3)c2c1	3.95
Cc1oc(-c2cccc(Oc3ccccc3)c2)nc1CN(Cc1cnn(C)c1)C(C)C	1.15
C[C@H](Cc1ccc(OCCCCCCOc2ccc(C[C@@H](C)N[C@H](C)c3ccccc3)cc2)cc1)NC[C@H](O)c1cccc(Cl)c1	94
c1ccc2c(c1)CN(Cc1ccsc1)CC1(CCN(Cc3c[nH]c4cnccc34)CC1)O2	3.19
Cc1nc2nc(N)nc(N)c2c(C)c1Cc1ccc(Cl)cc1	43.3
CC(=O)Nc1cccc(NC(=O)CSc2ccc(-c3nc4ccccc4[nH]3)cn2)c1	-0.63
CCN(CC)CCNc1c2ccc(Cl)cc2nc2ccc(OC)nc12	3.09
O=C(CCn1cncn1)N1CCCC(c2[nH]c3ccccc3c2-c2ccncc2)C1 (stereo not drawn)	-3.57
CN(C)CCNCc1ncsc1-c1ccc2c(Nc3ccc(F)cc3Cl)ccnc2c1	4.3
COc1ccc(CNCc2ccc(-c3cccc(-c4nc5cc(F)ccc5[nH]4)c3)cc2)cc1	4.45
Cc1cccc(C(=O)NC(NC(=S)Nc2cc(Cl)ccc2Cl)C(Cl)(Cl)Cl)c1 (stereo not drawn)	-1.9
